assay.target: CAMK4 (human) (UniProt Q16566)
Sequence (Q16566 whole entry, looked up): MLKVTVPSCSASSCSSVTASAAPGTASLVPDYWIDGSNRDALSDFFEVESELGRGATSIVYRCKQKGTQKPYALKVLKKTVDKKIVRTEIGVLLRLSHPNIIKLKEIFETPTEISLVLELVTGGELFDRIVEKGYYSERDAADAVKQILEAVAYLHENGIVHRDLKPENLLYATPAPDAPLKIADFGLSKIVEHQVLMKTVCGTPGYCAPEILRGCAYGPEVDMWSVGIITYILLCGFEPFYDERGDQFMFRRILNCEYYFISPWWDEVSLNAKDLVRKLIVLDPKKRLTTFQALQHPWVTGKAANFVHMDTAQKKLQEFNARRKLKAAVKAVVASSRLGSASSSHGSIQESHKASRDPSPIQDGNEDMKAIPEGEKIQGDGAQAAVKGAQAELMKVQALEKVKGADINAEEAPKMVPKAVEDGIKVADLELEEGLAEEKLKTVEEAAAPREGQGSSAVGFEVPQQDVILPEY
experiment.description: radiometric filter-binding kinase assay, Kinase HotSpot
particulars: compound 0.5 µM; ATP 10 µM
measurement.type: residual activity (%)
Numbers only, in %.

Below, each entry is followed by its recorded residual activity result.
[
  {
    "cpd.smiles": "Cn1c2ccccc2c2c3c(c4c5ccccc5n(CCC#N)c4c21)CNC3=O",
    "measurement.type": "residual activity",
    "test.value": 88.1
  },
  {
    "cpd.smiles": "COc1ccc2c(c1)/C(=C/c1cnc[nH]1)C(O)=N2",
    "measurement.type": "residual activity",
    "test.value": 97.4
  },
  {
    "cpd.smiles": "Ic1cccc(CSc2nnc(-c3ccncc3)o2)c1",
    "measurement.type": "residual activity",
    "test.value": 91.6
  },
  {
    "cpd.smiles": "O=C1c2ccccc2-c2nc3nnnn3nc21",
    "measurement.type": "residual activity",
    "test.value": 85.4
  },
  {
    "cpd.smiles": "CS(=O)(=O)CCNCc1ccc(-c2ccc3ncnc(Nc4ccc(OCc5cccc(F)c5)c(Cl)c4)c3c2)o1",
    "measurement.type": "residual activity",
    "test.value": 107
  }
]

For each of the compounds below, note its residual activity.
1. CO[C@@H]1[C@H](N(C)C(=O)c2ccccc2)C[C@H]2O[C@]1(C)n1c3ccccc3c3c4c(c5c6ccccc6n2c5c31)C(=O)NC4
2. N#C/C(=C\c1ccc(O)c(O)c1)C(=O)NCc1ccccc1
3. CC(C)(C)c1cc(C=C(C#N)C#N)cc(Br)c1O
4. Cc1cccc(-c2nc(C(C)(C)C)[nH]c2-c2ccc3c(c2)OCO3)n1

[103, 97, 94.2, 100]

// residual activity value for NC(=O)c1cccc(-c2cc(Nc3ccc(OC(F)(F)F)cc3)ncn2)c1 : 90.5

Data credit: the kinase profiling compilation of Christmann-Franck et al. (2016)
